# test-name: Caco-2 bidirectional transport, efflux ratio
# test-parameters: human, Caco-2
Papp A→B listing for selected compounds.
The response must be a number in ×10⁻⁶ cm/s with no trailing unit.

Here are 4 compounds together with their reported answers.
# compound, Papp A→B (×10⁻⁶ cm/s)
measured = [
    ("CO[C@H]1C[C@H]2OC[C@@]2(OC(C)=O)[C@H]2[C@H](OC(=O)c3ccccc3)[C@]34OC(=O)O[C@H]3[C@H](OC(=O)[C@H](O)[C@@H](NC(=O)OC(C)(C)C)c3ccccn3)C(C)=C([C@@H](OC(=O)N(C)C)C(=O)[C@]12C)C4(C)C [PCMI-09]", 3.56),
    ("CO[C@H]1C(=O)[C@]2(C)[C@@H](OC)C[C@H]3OC[C@@]3(OC(C)=O)[C@H]2[C@H](OC(=O)c2ccccc2)[C@]23OC(=O)O[C@H]2[C@H](OC(=O)[C@H](O)[C@@H](NC(=O)OC(C)(C)C)c2ccccn2)C(C)=C1C3(C)C [PCMI-04]", 3.21),
    ("COC(=O)O[C@H]1C[C@H]2OC[C@@]2(OC(C)=O)[C@H]2[C@H](OC(=O)c3ccccc3)[C@]34OC(=O)O[C@H]3[C@H](OC(=O)[C@H](O)[C@H](CC(C)C)NC(=O)OC(C)(C)C)C(C)=C([C@@H](OC)C(=O)[C@]12C)C4(C)C [PCMI-20]", 0.92),
    ("COC(=O)O[C@H]1C[C@H]2OC[C@@]2(OC(C)=O)[C@H]2[C@H](OC(=O)c3ccccc3)[C@]34OC(=O)O[C@H]3[C@H](OC(=O)[C@H](O)[C@@H](NC(=O)OC(C)(C)C)c3ccccc3)C(C)=C([C@@H](OC)C(=O)[C@]12C)C4(C)C [PCMI-17]", 2.4),
]

Next, consider the following compound.
Bench note: what Papp A→B did CO[C@H]1C(=O)[C@]2(C)[C@@H](OC)C[C@H]3OC[C@@]3(OC(C)=O)[C@H]2[C@H](OC(=O)c2ccccc2)[C@]23OC(=O)O[C@H]2[C@H](OC(=O)[C@H](O)[C@@H](NC(=O)N(C)C)c2ccccc2)C(C)=C1C3(C)C [PCMI-03] show?
2.97
